# assay.details: yeast display, Sf9 membrane polyspecificity reagent, FACS + sequencing; frameworks hold sequencing errors
experimental.endpoint: polyreactivity (PSR sort gate)

input.sequence: QVQLVESGGGLVQAGGSLRLSCAASGRIFGTYAMGWYRQAPGKERELVAAITQSGGRTYYADSVKGRFTISRDNAKNTVYLQMNSLKPEDTAVYYCAADSGKRRYGYYYWGQGTQVTVSS
value.observed: high polyreactivity
--
input.sequence: QVQIVESGGGLLQAGGSLRLSCAASGRIFPANAMGWYREAPGKERELGAAIDYDGGSTYYADSVKGRFTISRDNAKNTVYLQRNSLKPVDNGVFYCDKSLTFYSWRDYGYWGQGTQVTVSS
value.observed: high polyreactivity
--
input.sequence: QVQLVESGGGLVQAGGSLRLSCASSGLTFAAYAMGWSRQAPGKERELVAAISRRGGSTYYADSVKGRFTISRDNAKNTVYLQMNSLKPEDTAVYYCAAENEVYWYDVEYWGQGTQVTVSS
value.observed: high polyreactivity
